Where do the numbers come from? From the Deep4Chem optical property database.

- measurement-notes: solvent given as SMILES
- applied-conditions: in ClCCl
Would you mind telling me the reported absorption maximum of each entry?

Look up and report measured absorption maximum for this entry: c1ccc(-c2nc(-c3ccc(N4c5ccccc5Sc5ccccc54)cc3)nn2-c2ccc(N3c4ccccc4Sc4ccccc43)cc2)nc1
377 nm

Look up and report measured absorption maximum for this entry: CCOC(=O)c1ccc(C2CC(c3cccc4ccccc34)=NN2c2ccc(C)cc2)cc1 (stereo not given)
385 nm

Look up and report measured absorption maximum for this entry: COC(=O)/C=C/C=C/C1=CC2=C(c3c(C)cc(C)cc3C)c3cc(/C=C/C=C/C(=O)OC)cn3[B-](F)(F)[N+]2=C1
633 nm

Look up and report measured absorption maximum for this entry: CC(C)(C)c1ccc(-c2ccc(-c3ccc(N(c4ccccc4)c4ccccc4)cc3)c3nsnc23)cc1
436 nm

Look up and report measured absorption maximum for this entry: C(#Cc1cc(C#Cc2cccs2)c(C#Cc2cccs2)c(C#Cc2cccs2)c1C#Cc1cccs1)c1cccs1
372 nm
